Below, each of the molecules is paired with its reported inhibition value.
Assay: inhibitors of E-selectin induction by TNFa, primary screen, imaging, HUVEC, immunofluorescence, MLSMR starter and 10KST1 sets (AID 487);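 note: signal is fraction of cell area covered by stained E-selectin grains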
Conditions: HUVEC TNFalpha-induced E-selectin immunofluorescence imaging, at 2 µM; stronger effect = higher value
Give just the number in %; leave the unit off.

For orientation, consider the following solved cases.
CCOC(=O)c1cc2cc(OC)ccc2[nH]1 :: -44.6
CCOc1ccc(-c2nnc3sc(COc4ccccc4)nn23)cc1 :: -288
CCCCOc1nc2ccccc2nc1C(C#N)C(=O)NC1CCCCC1 (stereo unspecified) :: -124

Lab book: inhibition of `Clc1ccc2[nH]c3c(NCCN4CCOCC4)ncnc3c2c1` noted as -70

Lab book: inhibition of `O=C(O)c1ccc(OCCn2ccnc2)cc1` noted as -141

Lab book: inhibition of Cc1ccc2c(c1)C(CCN)C(=O)N2Cc1ccccc1 (stereo unspecified) noted as -11.3

Lab book: inhibition of `CCCCCNC(=O)c1c(N)n(/N=C/c2ccco2)c2nc3ccccc3nc12` noted as -71.9

Lab book: inhibition of CCOC(=O)C1=C(C)N=C2SC(C)C(=O)N2C1c1ccc(OC(C)=O)c(OC)c1 (stereo unspecified) noted as -11.8

Lab book: inhibition of `N#CC1=C(C=Nc2ccccc2O)CCC1` noted as -13.8

Lab book: inhibition of `CC(C)(C)NC(=O)CSc1nsc(SCC(=O)NC(C)(C)C)c1C#N` noted as 18.9

Lab book: inhibition of `O=c1[nH]c(=O)n(Cc2ccco2)c2c1C(C(F)(F)F)(C(F)(F)F)N=C(c1ccco1)N2` noted as -212

* * *

Molecular target: Dual specificity protein phosphatase 6 (Homo sapiens)
Test: DUSP6 inhibitors restoring Erk phosphorylation by chemical complementation, primary imaging in DUSP6-transfected HeLa (AID 609);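 for inhibition: phospho-Erk level distribution per well compared with pooled transfected vehicle control wells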
Conditions: HeLa MKP-3 transfected, phospho-Erk imaging KS statistic; at 10 µM; stronger effect = higher value; cells stimulated with TPA for 15 min
Below, each of the compounds is paired with its reported inhibition value.
Give just the number in %; leave the unit off.

For orientation, consider the following solved cases.
O=C(C1=C(O)C(=O)N(c2ncccn2)C1c1cccc(Cl)c1)c1ccco1 (stereo unspecified) :: -4.7
CCCCC1C(=O)N(c2ccccc2)N(c2ccccc2)C1=O :: 8
COC(=O)c1cc(OC)c(OC)cc1N :: -12.3
CCN(CC)c1ccc(-c2nn3c(-c4cccnc4)nnc3s2)cc1 :: -6.06
CC(=O)C1=C(NC(=O)c2ccccc2F)C[C@@H]2[C@H]1C2(C)C :: 11.9

Lab book: inhibition of O=C(O)C1CSC(CCc2ccccc2)N1 (stereo unspecified) noted as 7.83

Lab book: inhibition of `Brc1ccc(-c2cnc3n2CCCC3)cc1` noted as 5.65

* * *

Assay: DUSP6 inhibitors restoring Erk phosphorylation by chemical complementation, primary imaging in DUSP6-transfected HeLa (AID 609)
Conditions: HeLa MKP-3 transfected, phospho-Erk imaging KS statistic; measured here: cell density z-score; at 10 µM; cells stimulated with TPA for 15 min
Below, each of the compounds is paired with its reported z-score value.
Lab note: jot down the number only; don't add units.

For orientation, consider the following solved cases.
CCOC(=O)c1c(C)[nH]sc1=S :: -1.01
COc1ccccc1N1CCN(CCCCOc2ccc(F)cc2)CC1 :: 1.12
Cc1nnc(SCCC#N)n(CCC#N)c1=O :: -0.25
CC(=Nc1cccc(O)c1)c1sc2ccccc2c1O :: 0.824
CC(C)(Oc1ccc(CCNC(=O)c2ccc(Cl)cc2)cc1)C(=O)O :: -0.113

Lab book: z-score of COc1ccc(C2/C(=C(/O)c3ccc(OC(C)C)cc3)C(=O)C(=O)N2CCCN2CCOCC2)cc1 (stereo unspecified) noted as -0.477
